target: T1, human MSLN-R3-his protein (human, UniProt Q13421 487-598); assay: ELISA, coated antigen, antibody 1 nM
T1 construct: Made in HEK293E cells, purified on nickel column; also called hMSLN-R3-his; human MSLN-R3 protein; not shown: His tag
T1 sequence (Q13421 495-606): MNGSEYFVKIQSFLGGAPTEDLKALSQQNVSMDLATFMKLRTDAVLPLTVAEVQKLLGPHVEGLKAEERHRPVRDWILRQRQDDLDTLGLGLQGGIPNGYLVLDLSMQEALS
Listing of entries alongside the reported OD450.
reported-metric: OD450

>  <binder>
S009-F5-9.16 chimeric antibody (antibody, human IgG1, kappa, V domains shown, Human-murine chimeric antibody, human IgG1/kappa constant regions) VH: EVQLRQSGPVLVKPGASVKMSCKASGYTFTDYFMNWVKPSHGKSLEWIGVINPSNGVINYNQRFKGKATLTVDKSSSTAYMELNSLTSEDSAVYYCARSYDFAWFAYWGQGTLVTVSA VL: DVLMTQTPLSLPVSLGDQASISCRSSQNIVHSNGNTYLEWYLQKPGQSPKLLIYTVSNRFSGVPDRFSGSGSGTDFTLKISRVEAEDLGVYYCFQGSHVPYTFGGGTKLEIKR

>  <observed-value>
2.32

$$$$
>  <binder>
S009-F4-94.15 chimeric antibody (antibody, human IgG1, kappa, V domains shown, Human-murine chimeric antibody: murine VH/VL on human IgG1 heavy and kappa light constant regions) VH: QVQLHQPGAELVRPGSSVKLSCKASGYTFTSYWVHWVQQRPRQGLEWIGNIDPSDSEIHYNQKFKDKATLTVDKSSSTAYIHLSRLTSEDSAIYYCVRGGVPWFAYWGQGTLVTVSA VL: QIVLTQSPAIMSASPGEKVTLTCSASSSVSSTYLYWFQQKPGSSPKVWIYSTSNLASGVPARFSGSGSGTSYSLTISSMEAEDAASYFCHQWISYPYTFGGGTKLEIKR

>  <observed-value>
0.11

$$$$
>  <binder>
S009-F6-76.1 chimeric antibody (antibody, human IgG1, kappa, V domains shown, Human-murine chimeric antibody, human IgG1/kappa constant regions) VH: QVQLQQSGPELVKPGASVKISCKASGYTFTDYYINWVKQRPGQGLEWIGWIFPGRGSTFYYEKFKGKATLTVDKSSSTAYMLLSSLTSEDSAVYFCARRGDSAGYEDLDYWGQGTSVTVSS VL: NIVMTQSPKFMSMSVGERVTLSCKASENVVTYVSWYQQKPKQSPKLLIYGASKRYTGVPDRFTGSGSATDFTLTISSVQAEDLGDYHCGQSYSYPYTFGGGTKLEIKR

>  <observed-value>
0.04

$$$$
>  <binder>
Tab106 (YP218, hIgG1) (antibody, V domains shown, Control: YP218 VH and VL recombined into human IgG1 CH and CL expression vectors; also called YP218 human IgG1 antibody) VH: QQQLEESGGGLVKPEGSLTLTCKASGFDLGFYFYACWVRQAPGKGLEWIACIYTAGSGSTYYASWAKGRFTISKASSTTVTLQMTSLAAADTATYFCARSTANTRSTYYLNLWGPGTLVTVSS VL: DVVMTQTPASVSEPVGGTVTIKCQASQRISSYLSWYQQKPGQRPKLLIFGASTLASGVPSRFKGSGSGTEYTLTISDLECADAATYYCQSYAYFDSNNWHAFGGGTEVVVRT

>  <observed-value>
1.57

$$$$
>  <binder>
S009-F4-127.10 chimeric antibody (antibody, human IgG1, kappa, V domains shown, Human-murine chimeric antibody, human IgG1/kappa constant regions) VH: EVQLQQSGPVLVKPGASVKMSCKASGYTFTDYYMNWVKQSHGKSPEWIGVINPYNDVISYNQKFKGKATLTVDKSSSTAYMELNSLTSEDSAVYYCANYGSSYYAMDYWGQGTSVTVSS VL: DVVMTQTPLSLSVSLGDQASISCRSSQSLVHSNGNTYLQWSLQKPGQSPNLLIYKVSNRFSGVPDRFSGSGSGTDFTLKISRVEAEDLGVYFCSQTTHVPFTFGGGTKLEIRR

>  <observed-value>
1.82

$$$$

Origin of values: patent US20250250357A1
